# targetDesc: human 5-HT6 receptor (Homo sapiens, UniProt P50406)
# Construct: expressed in transfected cells
# Sequence (P50406 whole entry): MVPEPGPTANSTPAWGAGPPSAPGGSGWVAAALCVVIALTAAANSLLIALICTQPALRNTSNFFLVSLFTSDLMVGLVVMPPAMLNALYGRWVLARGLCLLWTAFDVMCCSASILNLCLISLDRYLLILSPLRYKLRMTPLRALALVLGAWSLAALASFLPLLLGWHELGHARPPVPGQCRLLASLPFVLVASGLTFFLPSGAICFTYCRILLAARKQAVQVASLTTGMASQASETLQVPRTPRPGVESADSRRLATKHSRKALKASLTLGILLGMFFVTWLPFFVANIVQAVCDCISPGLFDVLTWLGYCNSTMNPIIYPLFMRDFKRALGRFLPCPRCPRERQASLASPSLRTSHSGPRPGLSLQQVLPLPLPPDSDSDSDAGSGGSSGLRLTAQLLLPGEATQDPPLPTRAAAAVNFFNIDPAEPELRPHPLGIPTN
# protocol: Human 5-HT6 receptor binding assay (3H-LSD displacement)
# conditionDescription: membranes from HEK-293 cells, 2 nM 3H-LSD
pKi: −log10 of the molar value. Where a name gives a salt, the structure may show the parent alone.
quantityName: pKi

# input Quick one: give measured pKi for O=S(=O)(Nc1cccc(C2CNC2)c1)c1cccs1 [Example 12]
# output 7.30 to 8.00

# input Quick one: give measured pKi for CCCN1CC[C@@H](c2ccc(NS(=O)(=O)c3ccc(C(F)(F)F)s3)cc2)C1.Cl [Example 76, hydrochloride]
# output 8.00 to 9.00

# input Quick one: give measured pKi for O=S(=O)(Nc1cccc(C2CCCNC2)c1)c1cccc(OC(F)(F)F)c1 (stereo not shown) [Example 63, hydrochloride]
# output 7.30 to 8.00

# input Quick one: give measured pKi for O=S(=O)(Nc1cccc([C@@H]2CCNC2)c1)c1cccc(C(F)(F)F)c1 [Example 67]
# output 8.00 to 9.00

* * *

pKi: −log10 of the molar value. Structures can show the parent of a compound that is named as a salt.
quantityName: pKi

# input Give pKi only, for CCCN1CC[C@@H](c2ccc(NS(=O)(=O)c3cccc(C#N)c3)cc2)C1 [Example 64, hydrochloride] , using human 5-HT6 receptor (Homo sapiens, UniProt P50406) data.
# output 6.82 to 7.30

# input Give pKi only, for CCCN1CC(c2ccc(NS(=O)(=O)c3cc(Cl)cc(Cl)c3)cc2)C1 , using human 5-HT6 receptor (Homo sapiens, UniProt P50406) data.
# output 7.30 to 8.00

# input Give pKi only, for CCCN1CCC(c2cc(NS(=O)(=O)c3cccc(OC(F)(F)F)c3)ccc2OC)C1 (stereo not shown) , using human 5-HT6 receptor (Homo sapiens, UniProt P50406) data.
# output 7.30 to 8.00

# input Give pKi only, for Cc1c(S(=O)(=O)Nc2ccc(C3CNC3)cc2)sc2ccc(Cl)cc12 , using human 5-HT6 receptor (Homo sapiens, UniProt P50406) data.
# output 8.00 to 9.00

* * *

# targetDesc: human 5-HT6 receptor (Homo sapiens)
quantityName: Ki

# input Quick one: give measured Ki for CCCN1C[C@@H](CF)[C@H](c2ccc(NS(=O)(=O)c3cccc(C(F)(F)F)c3)cc2)C1 (relative stereo)
# output 1 to 10 nM

# input Quick one: give measured Ki for O=S(=O)(Nc1cccc(C2CNC2)c1)c1cccc(F)c1
# output 1 to 10 nM

# input Quick one: give measured Ki for CCCN1CC(c2ccc(NS(=O)(=O)c3ccc(Cl)s3)cc2)C1
# output 10 to 50 nM

# input Quick one: give measured Ki for O=S(=O)(Nc1cccc(C2CNC2)c1)c1cc(Cl)cc(Cl)c1
# output 1 to 10 nM

# input Quick one: give measured Ki for CCCN1CC[C@@H](c2ccc(NS(=O)(=O)c3ccc(C)s3)cc2)C1.Cl [Example 90, hydrochloride]
# output 1 to 10 nM

* * *

# targetDesc: human dopamine D3 receptors (Homo sapiens, UniProt P35462)
# Construct: expressed in transfected cells
# Sequence (P35462 whole entry): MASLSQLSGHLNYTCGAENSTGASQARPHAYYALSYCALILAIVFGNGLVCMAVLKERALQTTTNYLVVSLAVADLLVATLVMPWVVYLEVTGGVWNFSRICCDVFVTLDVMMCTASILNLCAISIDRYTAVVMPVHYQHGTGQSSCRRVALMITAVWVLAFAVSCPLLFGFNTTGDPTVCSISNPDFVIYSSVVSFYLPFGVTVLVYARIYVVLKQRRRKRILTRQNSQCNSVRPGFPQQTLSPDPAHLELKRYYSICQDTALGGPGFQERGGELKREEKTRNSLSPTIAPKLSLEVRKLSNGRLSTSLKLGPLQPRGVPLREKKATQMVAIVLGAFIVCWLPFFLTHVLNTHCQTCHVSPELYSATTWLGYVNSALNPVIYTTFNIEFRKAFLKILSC
# protocol: Dopamine D3 receptor binding ([125I]-iodosulpride)
# conditionDescription: ratio of receptor binding constants, D2L versus D3
quantityName: Ki(D2)/Ki(D3)

| smilesInput | targetDesc | Ki(D2)/Ki(D3) |
| --- | --- | --- |
| CCCN1CC[C@@H](c2ccc(NS(=O)(=O)c3cccc(Cl)c3)cc2)C1 | human dopamine D3 receptors (Homo sapiens, UniProt P35462) | + (between 10 and 50) |
| CCCN1CC[C@@H](c2ccc(NS(=O)(=O)c3cccc(N4CCCC4)c3)cc2)C1 | human dopamine D3 receptors (Homo sapiens, UniProt P35462) | + (between 10 and 50) |
| CCCN1CC[C@@H](c2ccc(NS(=O)(=O)c3cc(F)cc(C(F)(F)F)c3)cc2)C1.Cl | human dopamine D3 receptors (Homo sapiens, UniProt P35462) | ++ (between 50 and 100) |
| CCCN1CC[C@@H](c2ccc(NS(=O)(=O)c3ccc(F)c(Br)c3F)cc2)C1.Cl | human dopamine D3 receptors (Homo sapiens, UniProt P35462) | ++ (between 50 and 100) |
| CCCN1CC[C@@H](c2ccc(NS(=O)(=O)c3ccc(Cl)s3)cc2)C1 | human dopamine D3 receptors (Homo sapiens, UniProt P35462) | ++++ (>150) |
| CCCN1CC[C@@H](c2ccc(NS(=O)(=O)c3ccc(-c4csnn4)s3)cc2)C1.Cl | human dopamine D3 receptors (Homo sapiens, UniProt P35462) | + (between 10 and 50) |

# input Give Ki(D2)/Ki(D3) only, for CCCN1CC[C@@H](c2ccc(NS(=O)(=O)c3ccc(-n4cccn4)s3)cc2)C1.Cl , using human dopamine D3 receptors (Homo sapiens, UniProt P35462) data.
# output ++ (between 50 and 100)

# input Give Ki(D2)/Ki(D3) only, for CCCc1ccc(S(=O)(=O)Nc2ccc([C@@H]3CCN(CCC)C3)cc2)s1 , using human dopamine D3 receptors (Homo sapiens, UniProt P35462) data.
# output + (between 10 and 50)

# input Give Ki(D2)/Ki(D3) only, for CCCN1CC[C@@H](c2ccc(NS(=O)(=O)c3cccc(F)c3)cc2)C1.O=C(O)C(F)(F)F , using human dopamine D3 receptors (Homo sapiens, UniProt P35462) data.
# output ++ (between 50 and 100)

# input Give Ki(D2)/Ki(D3) only, for CCCN1CC[C@@H](c2ccc(NS(=O)(=O)c3ccc(C)s3)cc2)C1.Cl , using human dopamine D3 receptors (Homo sapiens, UniProt P35462) data.
# output ++++ (>150)

* * *

Structures can show the parent of a compound that is named as a salt.
quantityName: Ki

# input Give Ki only, for CCCN1CC[C@@H](c2ccc(NS(=O)(=O)c3cccc(OC(F)(F)F)c3)cc2)C1 [Example 1, hydrochloride] , using human 5-HT6 receptor (Homo sapiens) data.
# output 10 to 50 nM

# input Give Ki only, for Cl.O=S(=O)(Nc1ccc([C@@H]2CCNC2)cc1)c1ccc(-c2ccccn2)s1 [Example 69, hydrochloride] , using human 5-HT6 receptor (Homo sapiens) data.
# output 10 to 50 nM

# input Give Ki only, for CCCN1CC[C@@H](c2ccc(NS(=O)(=O)c3ccc(Br)s3)cc2)C1.Cl [Example 59, hydrochloride] , using human 5-HT6 receptor (Homo sapiens) data.
# output 1 to 10 nM

# input Give Ki only, for O=S(=O)(Nc1cccc(C2CNC2)c1)c1ccc(S(=O)(=O)c2ccccc2)s1 , using human 5-HT6 receptor (Homo sapiens) data.
# output 50 to 150 nM

# input Give Ki only, for CCCN1CC[C@@H](c2ccc(NS(=O)(=O)c3ccc(-c4ccccn4)s3)cc2)C1.Cl [Example 66, hydrochloride] , using human 5-HT6 receptor (Homo sapiens) data.
# output 10 to 50 nM

# input Give Ki only, for N#Cc1cccc(S(=O)(=O)Nc2cccc(C3CNC3)c2)c1 , using human 5-HT6 receptor (Homo sapiens) data.
# output 50 to 150 nM

# input Give Ki only, for CCCN1CC[C@@H](c2ccc(NS(=O)(=O)c3cccc(F)c3)cc2)C1.O=C(O)C(F)(F)F [Example 97, trifluoroacetate] , using human 5-HT6 receptor (Homo sapiens) data.
# output 1 to 10 nM

* * *

# targetDesc: human 5-HT6 receptor (Homo sapiens)
Structures can show the parent of a compound that is named as a salt.
quantityName: Ki

# input Give Ki only, for CN1CC[C@@H](c2cccc(NS(=O)(=O)c3cccc(C(F)(F)F)c3)c2)C1 [Example 77, hydrochloride] , using human 5-HT6 receptor (Homo sapiens) data.
# output 1 to 10 nM

# input Give Ki only, for CCCN1CC(c2ccc(NS(=O)(=O)c3cccc(Cl)c3Cl)cc2)C1 , using human 5-HT6 receptor (Homo sapiens) data.
# output 50 to 150 nM

# input Give Ki only, for CCCN1CC(c2ccc(NS(=O)(=O)c3cc(Cl)ccc3Cl)cc2)C1 , using human 5-HT6 receptor (Homo sapiens) data.
# output 50 to 150 nM

# input Give Ki only, for Cc1cccc(S(=O)(=O)Nc2cccc(C3CNC3)c2)c1 , using human 5-HT6 receptor (Homo sapiens) data.
# output 1 to 10 nM

# input Give Ki only, for O=S(=O)(Nc1cccc(C2CCNC2)c1)c1cccc(OC(F)(F)F)c1 (centres unmarked) , using human 5-HT6 receptor (Homo sapiens) data.
# output 1 to 10 nM

# input Give Ki only, for CCCN1CC[C@@H](c2ccc(NS(=O)(=O)c3cc(C(F)(F)F)ccc3OC)cc2)C1 , using human 5-HT6 receptor (Homo sapiens) data.
# output 10 to 50 nM

# input Give Ki only, for Cc1nc(-c2cccc(S(=O)(=O)Nc3cccc(C4CNC4)c3)c2)cs1 , using human 5-HT6 receptor (Homo sapiens) data.
# output 1 to 10 nM

# input Give Ki only, for CCCN1CC[C@@H](c2ccc(NS(=O)(=O)c3ccc(-n4cccn4)s3)cc2)C1.Cl [Example 73, hydrochloride] , using human 5-HT6 receptor (Homo sapiens) data.
# output 10 to 50 nM
